assay_text: qHTS assay for MDR1-selective chemotherapeutics: Primary screen using the drug-selected MDR subline cells KB-V1; also: nearly all actives have a fitted effect of over 60% in size
condition_label: KB-V1 MDR cells viability, CellTiter-Glo, 72 h; series mostly up to 46.1 µM
Hit rate of the full screen: of about 400,000 compounds, about 13,000 (3.2%) were called active. Inconclusive results (about 18%) are left out. Only a selection was taken, and actives are over-represented in it overall.
assay_metric: outcome

COc1ccc(N)cc1NC(=O)CN1CCOCC1 ... inactive
Cc1ccc(S(=O)(=O)N2CCOCC2)cc1C(=O)NCc1ccc(F)cc1 ... inactive
CCCCCNC(=O)C1C(=O)Nc2ccccc2C(=O)N1C(C)(C)C (stereo not drawn) ... inactive

###

assay_text: qHTS assay for MDR1-selective chemotherapeutics: Primary screen using the drug-selected MDR subline cells KB-V1; also: nearly all actives have a fitted effect of over 60% in size
condition_label: KB-V1 MDR cells viability, CellTiter-Glo, 72 h; series mostly up to 46.1 µM
Source text: A prime difficulty in effectively treating cancer is the development of cellular resistance to multiple structurally unrelated anticancer drugs, a phenomenon known as multidrug resistance (MDR). […] Numerous strategies to overcome P-gp-mediated MDR have been explored, including the design of drugs that evade recognition and efflux, and development of inhibitors to block efflux and restore drug accumulation. […]
Screen size: about 400,000 compounds; about 13,000 (3.2%) were called active. Inconclusive results (about 18%) are left out. Calls follow the shape of the dose curve; as a rule, active = well fitted cell-killing curve with a large enough effect; inconclusive = small, poorly fitted or top-dose-only effect, or effect the other way; inactive = flat fitted curve, though single readings scatter. The sample holds actives, similar compounds and a random draw of the others, so the mix is not that of the screen.
Classes used: class 1 = active, class 0 = inactive

C=CCn1c(SCCOc2ccc(OC)cc2)nnc1C(NC(=O)c1ccc(OC)cc1)C(C)C (stereo not drawn) ... class 1
CCc1nc2ccc(C(=O)Nc3ccc(OC)c(OC)c3)cn2c1N(C)C(=O)c1cccc(OC)c1 ... class 0
CCc1nc2c(=O)[nH]cnc2o1 ... class 0
O=C(CSc1ccccc1)Nc1cccc(S(=O)(=O)N2CCCCC2)c1 ... class 0
CC1=C(C(=O)N(C)C)CC(CC(=O)NCCc2ccccn2)C(=O)N1CCC1=CCCCC1 (stereo not drawn) ... class 0
CC(C)CC1C(=O)N(Cc2cn(Cc3ccco3)nn2)CCS(=O)(=O)N1Cc1ccc(-c2ccc(Cl)c(Cl)c2)cc1 (stereo not drawn) ... class 0
CC(C)C[C@H]1CNC(=S)N1C[C@H]1CCCN1C[C@H](Cc1ccc(O)cc1)N1C[C@H](Cc2ccc(O)cc2)N(CC2CCCCC2)C1=S ... class 0
Cc1ccc(CNC(=O)Nc2nnc([C@H]3C[C@H](O)[C@@H](CO)O3)s2)cc1 ... class 0

###

assay_text: qHTS assay for MDR1-selective chemotherapeutics: Primary screen using the drug-selected MDR subline cells KB-V1; also: nearly all actives have a fitted effect of over 60% in size
condition_label: KB-V1 MDR cells viability, CellTiter-Glo, 72 h; series mostly up to 46.1 µM
Hit rate of the full screen: of about 400,000 compounds, about 13,000 (3.2%) were called active. About 18% were inconclusive and are not listed. The call rests on the fitted dose curve; in most records, active means well fitted cell-killing curve with a large enough effect; inconclusive means small, poorly fitted or top-dose-only effect, or effect the other way; inactive means flat fitted curve, though single readings scatter. The sample as a whole holds a higher share of actives than the screen did.
Outcomes: yes for active, no for inactive

COC(=O)C[C@@H]1C=C[C@@H](NC(=O)c2ccc3c(c2)OCO3)[C@@H](CO)O1 ... no
Cc1cccc(N2CCN(C(=O)c3cccc(S(=O)(=O)N4CCc5ccccc5C4)c3)CC2C)c1 (stereo unspecified) ... yes
CNC(=S)N/N=C/c1ccc(OCc2ccccc2)c(Br)c1 ... no
Cc1ccc(F)cc1NC(=O)N1CCCN(c2ccc(C(F)(F)F)cn2)CC1 ... yes
CC(=O)N1c2ccc(S(=O)(=O)N3CCCC(C(=O)Nc4cccc(Cl)c4)C3)cc2CC1C (stereo unspecified) ... no
CNC(=O)c1sc(NCc2ccccc2OC)nc1C ... no

###

assay_text: qHTS assay for MDR1-selective chemotherapeutics: Primary screen using the drug-selected MDR subline cells KB-V1; also: nearly all actives have a fitted effect of over 60% in size
condition_label: KB-V1 MDR cells viability, CellTiter-Glo, 72 h; series mostly up to 46.1 µM
Among all 400,000 compounds or so, about 13,000 (3.2%) were called active. Another 18% or so got no clear call; they are omitted. The call rests on the fitted dose curve; in most records, active means well fitted cell-killing curve with a large enough effect; inconclusive means small, poorly fitted or top-dose-only effect, or effect the other way; inactive means flat fitted curve, though single readings scatter. Only a selection was taken, and actives are over-represented in it overall.
Possible outcomes: t (active), f (inactive)

CCCN(CCC)CCNC(=O)c1cc2c(C)nc3ccccc3c2o1 ... t
O=C(NC1CCCCCC1)c1cccnc1Sc1ccc(Cl)cc1 ... f
COc1cc(OC)cc(C(=O)N[C@H](C(=O)NNC(=O)c2ccc(Br)cc2)C(C)C)c1 ... f
COc1cc(OC)cc(C(=O)N[C@H](C(=O)OCC(=O)NC(C)c2ccccc2)C(C)C)c1 (some centres undefined) ... t

###

assay_text: qHTS assay for MDR1-selective chemotherapeutics: Primary screen using the drug-selected MDR subline cells KB-V1; also: nearly all actives have a fitted effect of over 60% in size
condition_label: KB-V1 MDR cells viability, CellTiter-Glo, 72 h; series mostly up to 46.1 µM
In all, about 400,000 compounds went through this assay and about 13,000 (3.2%) were called active. Inconclusive results (about 18%) are left out. Calls follow the shape of the dose curve; as a rule, active = well fitted cell-killing curve with a large enough effect; inconclusive = small, poorly fitted or top-dose-only effect, or effect the other way; inactive = flat fitted curve, though single readings scatter. What follows is part of a selection rich in actives, with near analogues and random picks from the rest.
Outcome codes: active, inactive

Cc1nn(-c2ccccc2)c(Cl)c1/C=C/C(=O)c1ccc(O)cc1 ... active
CN(CC(=O)NCC(c1ccccc1)N1CCCC1)S(=O)(=O)c1ccc(Cl)cc1 (stereo not drawn) ... active
CC(=O)c1sc(N2C(=O)c3oc4ccccc4c(=O)c3C2c2ccc(C)cc2)nc1C (stereo not drawn) ... inactive
CCSc1ccccc1C(=O)NCc1ccc(OC)cc1 ... active
COc1ccc(C(=O)N(C)Cc2ccc(OC)c(OC)c2OC)cc1S(=O)(=O)N1CCOCC1 ... inactive
OC(c1cc(Cl)cc(Cl)c1)c1ncc(-c2ccccc2C(F)(F)F)[nH]1 (stereo not drawn) ... inactive
Cc1ccc(NC(=O)c2ccco2)cc1 ... inactive
Cc1ccc(C(=O)N[C@H](C(=O)N2CCN(c3ncccn3)CC2)C(C)C)cc1 ... inactive
COc1ccc(CCCc2nnc(SCc3nc4ccccc4c(=O)[nH]3)n2C)cc1 ... inactive
CCc1c(-c2ccc(F)cc2)ncn1Cc1cccc(-c2ccccc2)c1 ... active
Cc1ccc(CC(=O)Nc2ccc(S(=O)(=O)N3CCOCC3)cc2)cc1C ... inactive
COc1ccc(CCC(=O)Nc2ccc(Cl)c(S(=O)(=O)N3CCOCC3)c2)cc1OC ... active
Cc1nn(-c2ccccc2)c(Cl)c1C(=O)Nc1ccccc1 ... inactive
OCCC#Cc1ccc(N2C(c3ccsc3)=Cc3ccc(F)cc3C2c2c[nH]c3ccccc23)cc1 (stereo not drawn) ... inactive
CN(CC(=O)NNC(=O)CNC(=O)c1ccccc1Cl)S(=O)(=O)c1ccc(Cl)cc1 ... inactive
CC1(C(=O)Nc2cccc3c2CCCC3)CCN1C(=O)C1(c2ccccc2)CC1 (stereo not drawn) ... inactive
COc1ccc(CCNC(=O)COC(=O)Cc2ccccc2F)cc1 ... inactive
O=c1cc(N2CCCCC2)c(-c2ccccc2)nn1Cc1cccc(F)c1 ... inactive
CSCCC(C(=O)NC(C)(C)C)n1c(-c2ccccc2)nc2ccccc21 (stereo not drawn) ... inactive
COc1ccc(CC(=O)Nc2ccc3c(c2)CCC3)cc1S(=O)(=O)N1CCOCC1 ... inactive
CCn1c(COc2c(C)cccc2C)nnc1SCc1nc2ccccc2c(=O)[nH]1 ... inactive
COc1ccc(CNC(=O)[C@H](Cc2c[nH]c3ccccc23)NC(C)=O)cc1OC ... inactive
CCc1nc2ccccc2c(C(=O)NCc2ccc(OC)cc2)c1C ... inactive

###

assay_text: qHTS assay for MDR1-selective chemotherapeutics: Primary screen using the drug-selected MDR subline cells KB-V1; also: nearly all actives have a fitted effect of over 60% in size
condition_label: KB-V1 MDR cells viability, CellTiter-Glo, 72 h; series mostly up to 46.1 µM
Screen size: about 400,000 compounds; about 13,000 (3.2%) were called active. About 18% were inconclusive and are not listed. The call rests on the fitted dose curve; in most records, active means well fitted cell-killing curve with a large enough effect; inconclusive means small, poorly fitted or top-dose-only effect, or effect the other way; inactive means flat fitted curve, though single readings scatter. The full list was thinned out, with actives kept by preference.
Outcome codes: active, inactive

O=C(Nc1cccc(Cl)c1)c1csnn1 ... inactive
COc1ccc(C(=O)OCC(=O)Nc2cc(C)on2)cc1F ... inactive
O=C(CSc1ncc(-c2ccccc2)[nH]1)Nc1ccc(F)cc1F ... inactive
COc1cccc(CNC(=O)C(NS(=O)(=O)c2ccc3nc(C)sc3c2)C(C)C)c1 (centres undefined) ... inactive
Cc1ccc(C(C(=O)NC2CCCCC2)N(C(=O)c2csnn2)C2CC2)o1 (centres undefined) ... inactive
COc1ccc(C(=O)OCC(=O)c2ccc(C)c(S(=O)(=O)N3CCOCC3)c2)cc1OC ... inactive
CNC[C@H]1OCc2cnnn2CCCC(=O)N([C@H](C)CO)C[C@@H]1C ... inactive
CCOC(=O)C1CCN(C(=O)c2ccc3c(=O)n4nc(Nc5ccccc5CC)sc4nc3c2)CC1 ... inactive
S=C(NCC1COc2ccccc2O1)Nc1ccc(Br)cc1 (centres undefined) ... active
Cc1ccc(C(=O)OCC(=O)N2CCCCCC2)cc1S(=O)(=O)N1CCOCC1 ... active
O=C(CNC(=O)c1ccc(Br)o1)Nc1ccccc1 ... inactive
O=C(O)CCCCCNc1ncnc2ccc(Br)cc12 ... inactive
CCc1nnc(SCC(=O)Nc2cc(OC)ccc2OC)nc1CC ... inactive
CCc1nc2ccc(C(=O)N3CCN(c4cc(Cl)ccc4C)CC3)cc2nc1CC ... inactive
CCn1nc(C)c(/C=N/NC(=O)Cc2ccc(Cl)cc2)c1C ... inactive
CC(=O)Nc1nonc1-c1nc2ccccc2n1Cc1ccccn1 ... inactive
C(=C\c1ccccc1)/CSc1nnc(-c2cccnc2)n1Cc1ccco1 ... inactive
COc1cc(C(O)c2nc(-c3cccc(C(=O)O)c3)cs2)ccc1F (centres undefined) ... inactive
Cc1ccc(S(=O)(=O)Nc2nc(C)cc(-n3nc(C)cc3C)n2)cc1 ... inactive
O=S(=O)(NCC(c1ccco1)N1CCOCC1)c1cc(F)ccc1F (centres undefined) ... inactive
CSCC(NS(=O)(=O)c1ccc(C)cc1)C(=O)O (centres undefined) ... inactive
O=C(Nc1ccccc1C(=O)N1CCCCCC1)c1ccccc1Cl ... inactive
O=C(NC1CCCC1)C(c1ccc(Cl)cc1)N(C(=O)c1csnn1)C1CC1 (centres undefined) ... inactive
CCCC(=O)Nc1ccc(Cl)c(NC(=O)c2ccc(Br)o2)c1 ... active
